- study system: SST5 (Homo sapiens)
- Sequence (P35346 whole entry): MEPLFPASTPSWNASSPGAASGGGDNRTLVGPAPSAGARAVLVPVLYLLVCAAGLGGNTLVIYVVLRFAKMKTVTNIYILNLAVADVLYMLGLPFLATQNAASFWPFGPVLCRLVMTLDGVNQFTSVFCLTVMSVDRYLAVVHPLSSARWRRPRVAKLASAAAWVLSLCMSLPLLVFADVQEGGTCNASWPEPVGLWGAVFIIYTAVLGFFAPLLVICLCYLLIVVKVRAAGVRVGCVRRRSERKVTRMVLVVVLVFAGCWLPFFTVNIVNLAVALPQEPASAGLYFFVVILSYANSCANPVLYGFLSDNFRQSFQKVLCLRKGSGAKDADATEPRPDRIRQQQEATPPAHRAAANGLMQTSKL
- assay details: Hit Hunter cAMP XS+ assay, SST5 activation via Gi (reduction of forskolin-stimulated cAMP)
- Format: cell-based
- applied conditions: reduction of forskolin-stimulated cAMP; 4-parameter logistic fit; read-out: SST5 pEC50 (converted)
- Protocol: A Hit Hunter® cAMP XS+ assay was used to monitor activation of the SST2 and SST5 via the Gi G protein. Cells were pre-stimulated with forskolin to elicit a cAMP response and the potency and efficacy of somatostatin agonists to reduce cAMP was measured. […] Signal was detected through incubation with 20 μL cAMP XS+ED/CL lysis cocktail ([…]; RT) followed by incubation with […] cAMP XS+EA reagent (180 min; RT). […]
*1 amine or outer side, *2 acyl side, *3 side chain or, on linkers, in order; H or OH if unused. Where a SMILES comes first, the peptide text is derived from it. Side-chain parts run from the residue outwards. [ ]: non-standard residue; d: D form. The star is where a group is joined. Ala(piperidin-4-yl) = O=C([C@H](CC1CCN([*:3])CC1)N[*:1])[*:2]; dTrp(5-Me) = Cc1ccc2[nH]cc(C[C@@H](N)C(=O)O)c2c1; Phe(3-Cl) = N[C@@H](Cc1cccc(Cl)c1)C(=O)O; Ethylenediamine = C(CN[*:2])N[*:1]; Hyp = O=C(O)[C@@H]1C[C@@H](O)CN1; hPhe = N[C@@H](CCc1ccccc1)C(=O)O; Phg = N[C@H](C(=O)O)c1ccccc1; CO = O=C([*:1])[*:2]; Bn = c1ccc(C*)cc1
quantity measured: EC50 (nM)
Provide the reading as a plain figure in nM.

compound	EC50 (nM)
Cc1ccc2[nH]cc(C[C@H]3NC(=O)[C@H](c4ccccc4)NC(=O)[C@@H]4C[C@@H](OC(=O)NCCN)CN4C(=O)[C@H](Cc4ccccc4)NC(=O)[C@H](Cc4ccc(OCc5ccccc5)cc4)NC(=O)[C@H](CC4CCNCC4)NC3=O)c2c1 [Example 13] (cyclo(F[Hyp]([CO-Ethylenediamine])[Phg][dTrp(5-Me)][Ala(piperidin-4-yl)]Y(Bn)))	2.51

Could you now consider this next compound?
Query: Value lookup for EC50; key = NCCNC(=O)O[C@@H]1C[C@H]2C(=O)N[C@@H](CCc3ccccc3)C(=O)N[C@H](Cc3c[nH]c4ccccc34)C(=O)N[C@@H](CC3CCNCC3)C(=O)N[C@@H](Cc3ccc(OCc4ccccc4)cc3)C(=O)N[C@@H](Cc3cccc(Cl)c3)C(=O)N2C1 [Example 41] (cyclo([Hyp]([CO-Ethylenediamine])[hPhe][dW][Ala(piperidin-4-yl)]Y(Bn)[Phe(3-Cl)]))
Result: 0.158

---

- study system: SST5 (Homo sapiens)
- assay details: Hit Hunter cAMP XS+ assay, SST5 activation via Gi (reduction of forskolin-stimulated cAMP)
- Type: cell-based
- applied conditions: reduction of forskolin-stimulated cAMP; 4-parameter logistic fit; read-out: SST5 pEC50 (converted)
*1 amine or outer side, *2 acyl side, *3 side chain or, on linkers, in order; H or OH if unused. Where a SMILES comes first, the peptide text is derived from it. Side-chain parts run from the residue outwards. [ ]: non-standard residue; d: D form. The star is where a group is joined. Ala(piperidin-4-yl) = O=C([C@H](CC1CCN([*:3])CC1)N[*:1])[*:2]; Ala(piperazin-1-yl) = N[C@@H](CN1CCNCC1)C(=O)O; Phe(3-Br) = N[C@@H](Cc1cccc(Br)c1)C(=O)O; Phe(4-Cl) = N[C@@H](Cc1ccc(Cl)cc1)C(=O)O; Ethylenediamine = C(CN[*:2])N[*:1]; Hyp = O=C(O)[C@@H]1C[C@@H](O)CN1; hPhe = N[C@@H](CCc1ccccc1)C(=O)O; Phg = N[C@H](C(=O)O)c1ccccc1; CO = O=C([*:1])[*:2]; Bn = c1ccc(C*)cc1
Entries and their EC50
Please respond with the number in nM and leave the unit unwritten.

compound	EC50, nM
NCCNC(=O)O[C@@H]1C[C@H]2C(=O)N[C@@H](c3ccccc3)C(=O)N[C@H](Cc3c[nH]c4ccccc34)C(=O)N[C@@H](CC3CCNCC3)C(=O)N[C@@H](Cc3ccc(OCc4ccccc4)cc3)C(=O)N[C@@H](Cc3cccc(Br)c3)C(=O)N2C1 [Example 10] (cyclo([Hyp]([CO-Ethylenediamine])[Phg][dW][Ala(piperidin-4-yl)]Y(Bn)[Phe(3-Br)]))	0.501

Let us move to another entry and its EC50.
Query: If you can, please state the reported EC50 value of NCCNC(=O)O[C@@H]1C[C@H]2C(=O)N[C@@H](CCc3ccccc3)C(=O)N[C@H](Cc3c[nH]c4ccccc34)C(=O)N[C@@H](CN3CCNCC3)C(=O)N[C@@H](Cc3ccc(OCc4ccccc4)cc3)C(=O)N[C@@H](Cc3ccc(Cl)cc3)C(=O)N2C1 [Example 51] (cyclo([Hyp]([CO-Ethylenediamine])[hPhe][dW][Ala(piperazin-1-yl)]Y(Bn)[Phe(4-Cl)])) .
Result: 0.0794

---

- study system: SST2 (Homo sapiens)
- Sequence (P30874 whole entry): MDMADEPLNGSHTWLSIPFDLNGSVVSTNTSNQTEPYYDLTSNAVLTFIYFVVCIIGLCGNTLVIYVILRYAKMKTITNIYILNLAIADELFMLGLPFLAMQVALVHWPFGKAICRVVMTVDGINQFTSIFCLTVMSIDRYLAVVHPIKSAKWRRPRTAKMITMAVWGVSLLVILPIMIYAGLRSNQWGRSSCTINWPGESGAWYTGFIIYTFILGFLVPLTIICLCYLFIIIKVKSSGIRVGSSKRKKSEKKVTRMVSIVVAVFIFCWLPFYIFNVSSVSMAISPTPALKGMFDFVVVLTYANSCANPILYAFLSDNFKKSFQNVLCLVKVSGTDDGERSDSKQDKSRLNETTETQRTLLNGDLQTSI
- assay details: Hit Hunter cAMP XS+ assay, SST2 activation via Gi (reduction of forskolin-stimulated cAMP)
- Format: cell-based
*1 amine or outer side, *2 acyl side, *3 side chain or, on linkers, in order; H or OH if unused. Where a SMILES comes first, the peptide text is derived from it. Side-chain parts run from the residue outwards. [ ]: non-standard residue; d: D form. The star is where a group is joined. Ala(piperidin-4-yl) = O=C([C@H](CC1CCN([*:3])CC1)N[*:1])[*:2]; dTrp(4-Me) = Cc1cccc2[nH]cc(C[C@@H](N)C(=O)O)c12; Ethylenediamine = C(CN[*:2])N[*:1]; Hyp = O=C(O)[C@@H]1C[C@@H](O)CN1; hPhe = N[C@@H](CCc1ccccc1)C(=O)O; 3Pal = N[C@@H](Cc1cccnc1)C(=O)O; Phg = N[C@H](C(=O)O)c1ccccc1; CO = O=C([*:1])[*:2]; Bn = c1ccc(C*)cc1
quantity measured: pEC50
Value format note: pEC50 is -log10 of concentration (mol/L); just state the number.

Before answering, review these 2 worked examples.
compound	study system	observed result
NCCNC(=O)O[C@@H]1C[C@H]2C(=O)N[C@@H](CCc3ccccc3)C(=O)N[C@H](Cc3c[nH]c4ccccc34)C(=O)N[C@@H](CC3CCNCC3)C(=O)N[C@@H](Cc3ccc(OCc4ccccc4)cc3)C(=O)N[C@@H](Cc3cccnc3)C(=O)N2C1 [Example 3] (cyclo([3Pal][Hyp]([CO-Ethylenediamine])[hPhe][dW][Ala(piperidin-4-yl)]Y(Bn)))	SST2 (Homo sapiens)	6.70
Cc1cccc2[nH]cc(C[C@H]3NC(=O)[C@H](c4ccccc4)NC(=O)[C@@H]4C[C@@H](OC(=O)NCCN)CN4C(=O)[C@H](Cc4ccccc4)NC(=O)[C@H](Cc4ccc(OCc5ccccc5)cc4)NC(=O)[C@H](CC4CCNCC4)NC3=O)c12 [Example 4] (cyclo(F[Hyp]([CO-Ethylenediamine])[Phg][dTrp(4-Me)][Ala(piperidin-4-yl)]Y(Bn)))	SST2 (Homo sapiens)	6.60

Query: I would be grateful if you could share the reported pEC50 for NCCNC(=O)O[C@@H]1C[C@H]2C(=O)N[C@@H](c3ccccc3)C(=O)N[C@H](Cc3c[nH]c4ccccc34)C(=O)N[C@@H](CC3CCNCC3)C(=O)N[C@@H](Cc3ccc(OCc4ccccc4)cc3)C(=O)N[C@@H](Cc3ccccc3)C(=O)N2C1 [Example 1] (cyclo(F[Hyp]([CO-Ethylenediamine])[Phg][dW][Ala(piperidin-4-yl)]Y(Bn))) .
Result: 5.50

Query: How about NCCNC(=O)O[C@@H]1C[C@H]2C(=O)N[C@@H](Cc3ccccc3)C(=O)N[C@H](Cc3c[nH]c4ccccc34)C(=O)N[C@@H](CC3CCNCC3)C(=O)N[C@@H](Cc3ccc(OCc4ccccc4)cc3)C(=O)N[C@@H](Cc3ccccc3)C(=O)N2C1 [Example 2] (cyclo(F[Hyp]([CO-Ethylenediamine])F[dW][Ala(piperidin-4-yl)]Y(Bn))) ?
Result: 6.40

---

- study system: SST5 (Homo sapiens)
- assay details: Hit Hunter cAMP XS+ assay, SST5 activation via Gi (reduction of forskolin-stimulated cAMP)
- Type: cell-based
- applied conditions: read-out: SST5 (EMax)
*1 amine or outer side, *2 acyl side, *3 side chain or, on linkers, in order; H or OH if unused. Where a SMILES comes first, the peptide text is derived from it. Side-chain parts run from the residue outwards. [ ]: non-standard residue; d: D form. The star is where a group is joined. Ala(piperidin-4-yl) = O=C([C@H](CC1CCN([*:3])CC1)N[*:1])[*:2]; Ala(piperazin-1-yl) = N[C@@H](CN1CCNCC1)C(=O)O; Ethylenediamine = C(CN[*:2])N[*:1]; d(hPhe) = N[C@H](CCc1ccccc1)C(=O)O; Hyp = O=C(O)[C@@H]1C[C@@H](O)CN1; hPhe = N[C@@H](CCc1ccccc1)C(=O)O; 3Pal = N[C@@H](Cc1cccnc1)C(=O)O; Cyclohexylmethyl = C1CCC(C*)CC1; Tic = O=C(O)[C@@H]1Cc2ccccc2CN1; X3 = CN[C@H]1CCN(*)C1; CO = O=C([*:1])[*:2]; Bn = c1ccc(C*)cc1
This section presents compounds with their documented Emax values.
Your answer should be a plain number; it is taken to be in %.

compound	endpoint unit	Emax
NCCNC(=O)O[C@@H]1C[C@H]2C(=O)N[C@@H](CCc3ccccc3)C(=O)N[C@H](Cc3c[nH]c4ccccc34)C(=O)N[C@@H](CN3CCNCC3)C(=O)N[C@@H](Cc3ccc(OCC4CCCCC4)cc3)C(=O)N[C@@H](Cc3cccnc3)C(=O)N2C1 [Example 52] (cyclo([3Pal][Hyp]([CO-Ethylenediamine])[hPhe][dW][Ala(piperazin-1-yl)]Y(Cyclohexylmethyl)))	%	107

Query: Report Emax for CN[C@H]1CCN(C(=O)O[C@@H]2C[C@H]3C(=O)N[C@@H](CCc4ccccc4)C(=O)N[C@H](Cc4c[nH]c5ccccc45)C(=O)N[C@@H](CC4CCNCC4)C(=O)N[C@@H](Cc4ccc(OCc5ccccc5)cc4)C(=O)N4Cc5ccccc5C[C@H]4C(=O)N3C2)C1 [Example 78] (cyclo([Hyp]([CO-X3])[hPhe][dW][Ala(piperidin-4-yl)]Y(Bn)[Tic])) please.
Result: 106

Query: What do you have for NCCNC(=O)O[C@@H]1C[C@H]2C(=O)N[C@H](CCc3ccccc3)C(=O)N[C@H](Cc3c[nH]c4ccccc34)C(=O)N[C@@H](CC3CCNCC3)C(=O)N[C@@H](Cc3ccc(OCc4ccccc4)cc3)C(=O)N[C@@H](Cc3ccccc3)C(=O)N2C1 [Example 38] (cyclo(F[Hyp]([CO-Ethylenediamine])[d(hPhe)][dW][Ala(piperidin-4-yl)]Y(Bn))) ?
Result: 103
